# assay_target: Neuronal acetylcholine receptor subunit alpha-6/beta-2 (Mus musculus, UniProt Q9ERK7+Q9R0W9)
# Sequence (Q9ERK7 whole entry): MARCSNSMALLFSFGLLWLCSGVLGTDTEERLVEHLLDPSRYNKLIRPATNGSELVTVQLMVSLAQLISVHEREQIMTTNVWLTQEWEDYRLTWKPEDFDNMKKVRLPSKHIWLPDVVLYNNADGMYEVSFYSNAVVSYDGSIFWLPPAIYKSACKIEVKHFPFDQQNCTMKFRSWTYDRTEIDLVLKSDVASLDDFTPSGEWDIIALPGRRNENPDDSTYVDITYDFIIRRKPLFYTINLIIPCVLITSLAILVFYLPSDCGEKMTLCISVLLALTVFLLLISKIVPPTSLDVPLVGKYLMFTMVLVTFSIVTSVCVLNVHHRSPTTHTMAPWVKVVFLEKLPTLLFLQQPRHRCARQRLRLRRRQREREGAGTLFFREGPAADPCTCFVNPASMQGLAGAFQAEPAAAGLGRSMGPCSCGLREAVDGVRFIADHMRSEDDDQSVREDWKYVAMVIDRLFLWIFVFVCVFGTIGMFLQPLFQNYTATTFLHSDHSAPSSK
# Sequence (Q9R0W9 whole entry): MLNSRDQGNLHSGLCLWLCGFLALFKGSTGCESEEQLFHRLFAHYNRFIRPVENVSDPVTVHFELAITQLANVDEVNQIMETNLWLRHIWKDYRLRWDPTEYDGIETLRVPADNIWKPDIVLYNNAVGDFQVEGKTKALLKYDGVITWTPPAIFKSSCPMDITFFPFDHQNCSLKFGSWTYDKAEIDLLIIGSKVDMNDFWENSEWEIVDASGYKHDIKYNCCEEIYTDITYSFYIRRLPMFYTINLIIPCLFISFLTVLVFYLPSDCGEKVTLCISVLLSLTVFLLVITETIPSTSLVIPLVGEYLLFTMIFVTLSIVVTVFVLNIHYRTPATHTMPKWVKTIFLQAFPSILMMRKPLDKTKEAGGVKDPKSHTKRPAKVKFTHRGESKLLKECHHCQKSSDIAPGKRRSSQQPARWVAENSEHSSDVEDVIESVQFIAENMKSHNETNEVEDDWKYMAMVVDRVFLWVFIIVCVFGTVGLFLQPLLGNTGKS
# protocol_details: Displacement of [125I]-alpha-Conotoxin MII from alpha6beta2* nAChR in mouse olfactory tubercles, striatum and superior coliculus
# Assay type: tissue-based, Olfactory tubercle
pKi: −log10 of the molar value.
Everything with pKi lower than 7 is -1; everything else, including exactly 7, is 1.

QUERY: Record CN1C2C=C(c3cccnc3)CC1CC2.Cl.Cl (stereo not given) ; criterion: pKi no lower than 7. Met?
RESULT: 1

QUERY: Record "C(#C[C@H]1CCCN1)c1cncnc1" ; criterion: pKi no lower than 7. Met?
RESULT: -1

QUERY: Record "C(=C\[C@@H]1CCNC1)/c1cncnc1.O=C(O)[C@@H](O)[C@H](O)[C@H](O)[C@@H](O)C(=O)O" ; criterion: pKi no lower than 7. Met?
RESULT: -1

QUERY: Record "C(#C[C@H]1CCCN1)c1cccnc1.O=C(O)[C@@H](O)[C@H](O)[C@H](O)[C@@H](O)C(=O)O" ; criterion: pKi no lower than 7. Met?
RESULT: -1

QUERY: Record O=C(O)C(F)(F)F.c1ncc(C2CC3CCN2CC3)cn1 (stereo not given) ; criterion: pKi no lower than 7. Met?
RESULT: 1

QUERY: Record "CNCC/C=C/c1cccnc1.O=C(O)[C@@H](O)[C@H](O)[C@H](O)[C@@H](O)C(=O)O" ; criterion: pKi no lower than 7. Met?
RESULT: -1

QUERY: Record CN1C2C=C(c3cncnc3)CC1CC2.O=C(O)C(F)(F)F (stereo not given) ; criterion: pKi no lower than 7. Met?
RESULT: 1

QUERY: Record "C(=C\[C@@H]1CCNC1)/c1cccnc1.O=C(O)C(F)(F)F" ; criterion: pKi no lower than 7. Met?
RESULT: -1

QUERY: Record "CNCC/C=C/c1cncnc1.O=C(O)[C@@H](O)[C@H](O)[C@H](O)[C@@H](O)C(=O)O" ; criterion: pKi no lower than 7. Met?
RESULT: -1

---

Exercise: for every item that follows, state its recorded Ratio EC50.
# protocol_details: Selectivity ratio, ratio of EC50 for alpha3beta4* nAChR in mouse to EC50 for alpha6beta2*nAChR in mouse

QUERY: Quick one: Ratio EC50 for O=C(O)C(F)(F)F.c1ncc(C2CC3CCN2CC3)cn1 (centres undefined) ?
RESULT: 26.7

QUERY: Quick one: Ratio EC50 for "C(=C\[C@@H]1CCNC1)/c1cccnc1.O=C(O)C(F)(F)F" ?
RESULT: 20

QUERY: Quick one: Ratio EC50 for "CNCC/C=C/c1cncnc1.O=C(O)[C@@H](O)[C@H](O)[C@H](O)[C@@H](O)C(=O)O" ?
RESULT: 0.26

QUERY: Quick one: Ratio EC50 for CN1C2C=C(c3cccnc3)CC1CC2.Cl.Cl (centres undefined) ?
RESULT: 105

---

# assay_target: Nicotinic acetylcholine receptor alpha-4/beta-2 (Mus musculus, UniProt Q8R493+Q9ERK7)
# Sequence (Q9ERK7 whole entry): as the sequence (Q9ERK7 whole entry) above
# Sequence (Q8R493 whole entry): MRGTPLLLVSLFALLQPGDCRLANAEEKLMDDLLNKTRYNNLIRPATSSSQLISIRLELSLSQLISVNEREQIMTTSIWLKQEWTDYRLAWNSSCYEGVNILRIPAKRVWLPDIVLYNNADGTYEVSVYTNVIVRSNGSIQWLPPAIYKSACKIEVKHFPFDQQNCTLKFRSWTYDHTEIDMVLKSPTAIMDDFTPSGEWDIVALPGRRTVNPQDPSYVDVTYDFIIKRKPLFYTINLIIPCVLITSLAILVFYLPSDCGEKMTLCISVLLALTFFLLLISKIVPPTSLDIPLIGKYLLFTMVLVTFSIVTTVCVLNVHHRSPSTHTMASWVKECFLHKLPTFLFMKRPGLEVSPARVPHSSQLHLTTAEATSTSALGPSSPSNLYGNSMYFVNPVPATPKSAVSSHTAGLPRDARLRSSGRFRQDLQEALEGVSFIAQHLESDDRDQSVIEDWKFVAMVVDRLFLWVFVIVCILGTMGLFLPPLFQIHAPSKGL
# protocol_details: Displacement of [125I]epibatidine from alpha4beta2* nAChR in C57BL/6J mouse cortical membrane by gamma counting
value_kind: Ki (nM)
Respond with the bare value in nM.

QUERY: Quick one: Ki for CN1C2C=C(c3cncnc3)CC1CC2.O=C(O)C(F)(F)F (stereo not given) ?
RESULT: 1.2

QUERY: Quick one: Ki for CN1C2C=C(c3cccnc3)CC1CC2.Cl.Cl (stereo not given) ?
RESULT: 9.8

QUERY: Quick one: Ki for O=C(O)C(F)(F)F.c1ncc(CC2CC3CCN2CC3)cn1 (stereo not given) ?
RESULT: 59

QUERY: Quick one: Ki for "CNCC/C=C/c1cncnc1.O=C(O)[C@@H](O)[C@H](O)[C@H](O)[C@@H](O)C(=O)O" ?
RESULT: 69

QUERY: Quick one: Ki for "CNCC/C=C/c1cccnc1.O=C(O)[C@@H](O)[C@H](O)[C@H](O)[C@@H](O)C(=O)O" ?
RESULT: 25

QUERY: Quick one: Ki for "C(=C\[C@@H]1CCNC1)/c1cncnc1.O=C(O)[C@@H](O)[C@H](O)[C@H](O)[C@@H](O)C(=O)O" ?
RESULT: 24

QUERY: Quick one: Ki for "C(#C[C@H]1CCCN1)c1cccnc1.O=C(O)[C@@H](O)[C@H](O)[C@H](O)[C@@H](O)C(=O)O" ?
RESULT: 20

QUERY: Quick one: Ki for O=C(O)C(F)(F)F.c1ncc(C2CC3CCN2CC3)cn1 (stereo not given) ?
RESULT: 1.8

QUERY: Quick one: Ki for "C(#C[C@H]1CCCN1)c1cncnc1" ?
RESULT: 30

QUERY: Quick one: Ki for "C(=C\[C@@H]1CCNC1)/c1cccnc1.O=C(O)C(F)(F)F" ?
RESULT: 11
